Catalogue of CC50 at 24 h values
# experimental.protocol: Cytotoxicity against mouse embryo HMC after 24 hrs by Alamar blue assay
# condition.parameters: mouse embryo HMC cells, read-out: LC50
Numbers only; they are read as µM.

chemical.string: CC(C)=CCC1=C(OS(C)(=O)=O)C(=O)c2ccccc2C1=O
value.units: µM
recorded.result: 16.7

chemical.string: O=C1C=C(n2cc(-c3ccccc3)nn2)C(=O)c2ccccc21
value.units: µM
recorded.result: 206

chemical.string: O=C1C=C(n2cc(CO)nn2)C(=O)c2ccccc21
value.units: µM
recorded.result: 107

Lab note: next compound to report on.
Prompt line: Item O=C1C=C(Cl)C(=O)c2ccccc21 has what recorded CC50 at 24 h?
Response line: 41.3
